# assayDetails: physchem
# experimentalParameters: pH 4.5, aqueous buffer, kinetic from dmso stock, Solubility (pH 4.5)
measurementKind: solubility at 24 h (µg/mL)

COC[C@H]1N(c2nc(-c3cccc(C)c3OCc3cc(C)c4c(c3)CCN(C3COC3)C4)cs2)C[C@@H]2C[C@@]21C(=O)O | 62
COC[C@H]1N(c2cccc(-c3cccc(C)c3OCc3cc4c(c(OC)c3)CN(C3CCOCC3)CC4)n2)C[C@@H]2C[C@@]21C(=O)O | 99
O=C(O)[C@@]12CCN(c3cccc(-c4ccccc4OCc4ccc5c(c4)CCN(C4COC4)C5)n3)C[C@@H]1C2 | 90
CO[C@@H]1CN(c2cccc(-c3cccc(C)c3OCc3ccc4c(c3)C(C)(C)CN(C3CCOCC3)CC4)n2)CC[C@@H]1C(=O)O | 103
Cc1cccc(-c2csc(N3C[C@@H]4C[C@]4(C(=O)O)C3)n2)c1OCc1ccc2c(c1C)CCN(C1CCC1)C2 | 71
CO[C@@H]1CN(c2cccc(-c3cccc(C)c3OCc3cc(C)c4c(c3)CCN(C3COC3)CC4)n2)CC[C@@H]1C(=O)O | 84.7
